pKi for Melanocortin receptor 5 (Homo sapiens, UniProt P33032) - collated from the literature.
# pKi: negative log10 of molar concentration; output just the value

compound=CSC[C@H](NC(=O)[C@H](Cc1c[nH]c2ccccc12)NC(=O)[C@H](CCCNC(=N)N)NC(=O)[C@@H](Cc1ccccc1)NC(=O)[C@H](Cc1cnc[nH]1)NC(=O)[C@H](CCC(=O)O)NC(=O)[C@H](CSC)NC(=O)[C@H](CCCNC(=N)N)NC(=O)[C@H](Cc1ccc(O)cc1)NC(C)=O)C(N)=O quantitykind=pKi testvalue=7.21
compound=O=C(NCCc1ccc(Cl)cc1Cl)c1ccc(NC(=NC2CCCCC2)N2CCNCC2)cc1 quantitykind=pKi testvalue=7.74

Now let's try a different one.
Exam item: Using the record for CC(NC1CCCNC1)c1ccccc1N1CCN(C(=O)[C@@H](Cc2ccc(Cl)cc2)NC(=O)[C@H]2Cc3ccccc3CN2)CC1 (stereo partly drawn) , state its measured pKi.
Marked response: 6.57

---

Ki for Melanocortin receptor 5 (Homo sapiens, UniProt P33032) - collated from the literature.
Expressed in nM, but write only the number.

Before answering, review these 2 worked examples.
molecule=CSCC[C@H](NC(=O)[C@H](CCCNC(=N)N)NC(=O)[C@H](Cc1ccc(O)cc1)NC(C)=O)C(=O)N[C@@H](CCC(=O)O)C(=O)N[C@@H](Cc1cnc[nH]1)C(=O)N[C@H](Cc1ccccc1)C(=O)N[C@@H](CCCNC(=N)N)C(=O)N[C@@H](Cc1c[nH]c2ccccc12)C(=O)NCC(N)=O system="Melanocortin receptor 5 (Homo sapiens, UniProt P33032)" testvalue=0.84
molecule=CC(C)[C@H](NC(=O)[C@@H](N)Cc1ccc(O)cc1)C(=O)N[C@H]1CSSC[C@@H](C(=O)N[C@@H](CCCN=C(N)N)C(=O)N[C@@H](Cc2ccccc2)C(=O)NCC(N)=O)NC(=O)[C@H](Cc2c[nH]c3ccccc23)NC(=O)[C@H](CCCN=C(N)N)NC(=O)[C@H](Cc2ccccc2)NC(=O)[C@H](Cc2c[nH]cn2)NC(=O)CNC1=O system="Melanocortin receptor 5 (Homo sapiens, UniProt P33032)" testvalue=210

Exam item: Fetch value of Ki on Melanocortin receptor 5 (Homo sapiens, UniProt P33032) for CC1CN(C(=NC2CCCCC2)Nc2ccc(C(=O)NCCc3ccc(Cl)cc3Cl)cc2)CC(C)N1 (stereo unspecified) .
Sequence (P33032 whole entry): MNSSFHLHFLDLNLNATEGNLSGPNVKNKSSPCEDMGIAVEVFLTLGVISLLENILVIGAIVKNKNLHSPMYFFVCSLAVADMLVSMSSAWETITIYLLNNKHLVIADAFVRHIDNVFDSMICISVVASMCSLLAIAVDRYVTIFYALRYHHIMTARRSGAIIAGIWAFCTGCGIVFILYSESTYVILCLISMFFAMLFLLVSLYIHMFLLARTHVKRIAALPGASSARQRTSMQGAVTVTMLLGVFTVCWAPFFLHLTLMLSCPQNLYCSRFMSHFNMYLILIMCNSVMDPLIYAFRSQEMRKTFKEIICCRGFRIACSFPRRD
Marked response: 11

Exam item: Fetch value of Ki on Melanocortin receptor 5 (Homo sapiens, UniProt P33032) for NCC(=O)N[C@H](Cc1ccc(Cl)cc1)C(=O)N1CCN(c2ccccc2CNCCc2cccs2)CC1 .
Marked response: 990

Exam item: Fetch value of Ki on Melanocortin receptor 5 (Homo sapiens, UniProt P33032) for O=C(N[C@H](Cc1ccc(Cl)cc1)C(=O)N1CCN([C@H]2CCCC[C@@H]2n2cncn2)CC1)C1Cc2ccccc2CN1 (stereo partly specified) .
Marked response: 17000

Exam item: Fetch value of Ki on Melanocortin receptor 5 (Homo sapiens, UniProt P33032) for O=C(N[C@H](Cc1ccc(Cl)cc1)C(=O)N1CCN(c2ccccc2Cn2cncn2)CC1)[C@H]1Cc2ccccc2CN1 .
Marked response: 1200

Exam item: Fetch value of Ki on Melanocortin receptor 5 (Homo sapiens, UniProt P33032) for COc1ccccc1CCNCc1cccnc1N1CCN(C(=O)[C@@H](Cc2ccc(Cl)cc2Cl)NC(=O)CCN)CC1 .
Marked response: 2100

Exam item: Fetch value of Ki on Melanocortin receptor 5 (Homo sapiens, UniProt P33032) for CCCC[C@H](NC(=O)[C@@H](NC(=O)[C@@H](N)Cc1ccc(O)cc1)C(C)C)C(=O)N[C@@H]1CSSC[C@@H](C(=O)N[C@@H](CCCNC(=N)N)C(=O)N[C@@H](Cc2ccccc2)C(=O)NCC(N)=O)NC(=O)[C@H](Cc2c[nH]c3ccccc23)NC(=O)[C@H](CCCNC(=N)N)NC(=O)[C@H](Cc2ccccc2)NC(=O)[C@H](Cc2cnc[nH]2)NC1=O .
Marked response: 210

Exam item: Fetch value of Ki on Melanocortin receptor 5 (Homo sapiens, UniProt P33032) for CC(C)C[C@H](NC(=O)CN)c1cc(C(F)(F)F)ccc1N1CCN(C(=O)CCc2ccc(Cl)cc2Cl)CC1 .
Marked response: 500
